PROCEDURE TEXT: Apparent permeability from basolateral to apical side in human Caco2 cells at 10 uM at pH 7.4 by LC-MS/MS analysis
Format: ADME, cell-based
EXPERIMENTAL CONDITIONS: Caco-2, pH 7.4
Form field: Papp B→A at 10 µM (one value per entry).
Please reply with the bare figure in ×10⁻⁶ cm/s and do not write the unit itself.

• NCC(NC(=O)c1ccc(-c2cc(F)c(Cl)c(F)c2)[nH]1)c1ncc(CO)s1 (stereo in doubt) = 17.2
• Cc1nc(C(NC(=O)c2ccc(-c3ccc(Cl)cc3)[nH]2)C2CCCCN2)sc1CO (centres undefined) = 31.3
• COc1cnc(-n2cnc(C)n2)c2[nH]cc(C(=O)C(=O)N3CCN(C(=O)c4ccccc4)CC3)c12 = 37.4

// moving on: another record for Papp B→A at 10 µM
Request: Please report the measured Papp B→A at 10 µM for Cc1ccc(-c2ccc(C(=O)NC(CN)c3ncc(CO)s3)[nH]2)cc1F (stereo in doubt)
Result: 19.5
